Entry source: PubChem BioAssay (NCATS)

Tested on: FAB9
TEST: qHTS profiling for inhibitors of Plasmodium falciparum proliferation (AID 504749); note: nearly all actives have a fitted effect of over 60% in size
CONDITION_NOTES: P. falciparum in erythrocytes, SYBR Green DNA, 72 h; series mostly up to 28.7 µM
Results filed as inconclusive are left out. Active and inactive are the calls of the source. Calls come from the whole dose curve; as a rule, active = well fitted inhibition curve with a large enough effect; inconclusive = small, poorly fitted or top-dose-only effect; inactive = flat fitted curve, though single readings scatter.
Answer with one of the outcomes t for active, f for inactive

{"COMPOUND": "CC(C)c1c(CN(C)[C@@H](C)Cc2ccccc2)n(C)n(-c2ccccc2)c1=O", "SYSTEM_UNDER_TEST": "FAB9", "LABEL_VALUE": "f"}
{"COMPOUND": "Oc1ccc2c3c1O[C@H]1[C@@H](O)CC[C@@]4(O)C(C2)N(CC2CCC2)CCC314 (stereo not given in full)", "SYSTEM_UNDER_TEST": "FAB9", "LABEL_VALUE": "f"}
{"COMPOUND": "CC1=C2[C@@H]3OC(=O)[C@@H](C)[C@@H]3CC[C@]2(C)C=CC1=O", "SYSTEM_UNDER_TEST": "FAB9", "LABEL_VALUE": "f"}
{"COMPOUND": "COc1ccc2c(c1OC)CN1CCc3cc4c(cc3[C@H]1C2)OCO4", "SYSTEM_UNDER_TEST": "FAB9", "LABEL_VALUE": "t"}
{"COMPOUND": "Clc1ccc([C@@H](OCCN2CCCCC2)c2ccccc2)cc1", "SYSTEM_UNDER_TEST": "FAB9", "LABEL_VALUE": "f"}

Ask: Identify the outcome logged in this assay for the compound shown: N[C@H]1C[C@H]1c1ccccc1
Result: f

Ask: Entry to check: C[C@@]12CCC(=O)C=C1C=C[C@H]1[C@H]3CC[C@](O)(CCC(=O)O)[C@]3(C)CC[C@@H]12
Result: f

Ask: Entry to check: CNC(C)[C@@H](O)c1ccc(O)cc1 (stereo not given in full)
Result: f

Ask: Entry to check: CC(C)N(CC[C@@](C(N)=O)(c1ccccc1)c1ccccn1)C(C)C
Result: f

Ask: Entry to check: C[C@]12CC[C@H]3[C@@H](CCC4=CC(=O)CC[C@@]43C)[C@@H]1CC[C@@H]2O
Result: f

----------
TEST: Primary qHTS for Vero E6 cytotoxicity: counterscreen for inhibitors of SARS-S pseudo-typed particle cell entry (AID 1479150)
CONDITION_NOTES: cell viability; at 57.1 µM (top of the series) unless noted
Inconclusive results are not listed. Activity calls are given as the source filed them. The call rests on the fitted dose curve.
ATTRIBUTE_MEASURED: outcome

Consider the reported outcome for these compounds:
{"COMPOUND": "C[N+](C)(C)CCOP(=O)([O-])OP(=O)(O)OC[C@H]1OC(n2ccc(N)nc2=O)[C@H](O)[C@@H]1O (some centres not stated)", "VALUE_OBSERVED": "inactive [at 0.573 µM]"}
{"COMPOUND": "O=P(O)(O)C(O)(Cc1cnc2ccccn12)P(=O)(O)O", "VALUE_OBSERVED": "inactive [at 0.573 µM]"}
{"COMPOUND": "CC1(C)S[C@@H]2[C@H](N)C(=O)N2[C@@H]1C(=O)O", "VALUE_OBSERVED": "inactive [at 5.34 µM]"}
{"COMPOUND": "O=C(O)c1cc(O)c2c(c1)[O][Bi][O]2", "VALUE_OBSERVED": "inactive [at 0.573 µM]"}

Ask: Quick one: outcome for CN1c2c(nc(N)[nH]c2=O)NC[C@@H]1CNc1ccc(C(=O)N[C@@H](CCC(=O)O)C(=O)O)cc1 ?
Result: inactive [at 5.34 µM]
